biological target: Phospholipid hydroperoxide glutathione peroxidase GPX4 (Homo sapiens); assay: Primary qHTS Assay for Inhibitors of Recombinant Selenoprotein Glutathione Peroxidase 4 (GPX4) (AID 1845192); conditions: recombinant GPX4, GR-coupled NADPH fluorescence, 15 min; series mostly up to 50 µM; also: nearly all actives have a fitted effect of over 65% in size
Inconclusive results are not listed. Activity calls are given as the source filed them. Calls follow the shape of the dose curve; as a rule, active = well fitted inhibition curve with a large enough effect; inconclusive = small, poorly fitted or top-dose-only effect; inactive = flat fitted curve, though single readings scatter.
assay endpoint: outcome

# annotated cases, reported outcome shown
In [3]: df
Out[3]:
                                   compound  measurement
0  COCCOC(=O)C1=C(C)NC(C)=C(C(=O)OC/C=C/c2ccccc2)C1c1cccc([N+](=O)[O-])c1 (stereo not drawn)     inactive
1  CN1CCC[C@@H]1Cc1c[nH]c2ccc(CCS(=O)(=O)c3ccccc3)cc12     inactive
2  CCCCN(CCCC)CC(O)c1cc(Cl)cc2c1-c1ccc(Cl)cc1/C2=C/c1ccc(Cl)cc1 (stereo not drawn)     inactive
3  CCCCCCCCCCCCCCCCCCOCC(O)CO (stereo not drawn)     inactive
4            Oc1cn2c(n1)Nc1ccc(Cl)c(Cl)c1C2     inactive
5  OCC(O)CN1CCN(c2ccccc2)CC1 (stereo not drawn)     inactive
6            COc1cc(C)c(Cc2cnc(N)nc2N)cc1OC     inactive
7  OCCN1CCN(CCCN2c3ccccc3Sc3ccc(Cl)cc32)CC1     inactive
8  OC[C@H]1O[C@@H](O[C@@H]2[C@@H](CO)O[C@](O)(CO)[C@H]2O)[C@H](O)[C@@H](O)[C@H]1O     inactive
9  CN(C)CCOC(C)(c1ccccc1)c1ccccn1 (stereo not drawn)     inactive

Record summary for `CCCCOc1cc(C(=O)OCCN(CC)CC)ccc1N` : reported outcome = inactive

Record summary for CC(=O)NC(Cc1ccccc1)C(=O)O (stereo not drawn) : reported outcome = inactive

Record summary for `CCN(CC)CCNC(=O)c1c(C)[nH]c(/C=C2\C(=O)Nc3ccc(F)cc32)c1C` : reported outcome = inactive

Record summary for NS(=O)(=O)c1cc2c(cc1C(F)(F)F)NC(Cc1ccccc1)NS2(=O)=O (stereo not drawn) : reported outcome = inactive

Record summary for CN1CCCCC1CCN1c2ccccc2Sc2ccc(S(C)=O)cc21 (stereo not drawn) : reported outcome = inactive

Record summary for COc1ccc2[nH]c(S(=O)Cc3ncc(C)c(OC)c3C)nc2n1 (stereo not drawn) : reported outcome = inactive

Record summary for `CCCOC(=O)c1ccccc1` : reported outcome = inactive

Record summary for `CC(=O)Oc1c(C)c(C)c2c(c1C)CC[C@@](C)(CCC[C@H](C)CCC[C@H](C)CCCC(C)C)O2` : reported outcome = inactive

Record summary for `CN(N=O)C(=O)N[C@@H]1[C@@H](O)[C@H](O)[C@@H](CO)O[C@@H]1O` : reported outcome = inactive

---

target: N-terminal Xaa-Pro-Lys N-methyltransferase 1 (Homo sapiens); experiment: qHTS Assay for Inhibitors of N-terminal methyltransferase 1 (NTMT1): LOPAC validation of the NTMT1 SAHH-coupled ThioGlo3 Assay (AID 1347143); conditions: recombinant NTMT1, SAHH-coupled ThioGlo3 fluorescence; series mostly up to 114 µM;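 also: SAH from peptide methylation measured as thiol fluorescence via SAHH coupling and ThioGlo3; nearly all actives have a fitted effect of over 70% in size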; also: potency is read from the fitted curve at half-maximal effect
Inconclusive results are not listed. Active and inactive are the calls of the source. Calls come from the whole dose curve; as a rule, active = well fitted inhibition curve with a large enough effect; inconclusive = small, poorly fitted or top-dose-only effect; inactive = no such curve, though single readings can be large or run the other way.
assay endpoint: Potency

# annotated cases, reported Potency shown
In [3]: df
Out[3]:
                                   compound  assay_endpoint       measurement
0  CCN(CC)C(C)CN1c2ccccc2Sc2ccccc21 (stereo not given)         Potency  25.1 µM (active)
1  CC(C(O)c1ccc(O)cc1)N1CCC(Cc2ccccc2)CC1 (stereo not given)         Potency          inactive
2  CCN(CC)CCCC(C)Nc1c2ccc(Cl)cc2nc2ccc(OC)cc12 (stereo not given)         Potency  39.8 µM (active)
3  CC(C)c1c(C(=O)Nc2ccccc2)c(-c2ccccc2)c(-c2ccc(F)cc2)n1CC[C@@H](O)C[C@@H](O)CC(=O)O         Potency          inactive
4            CC(C)C(=O)c1c(C(C)C)nn2ccccc12         Potency          inactive

Record summary for `CCCn1cnc2c1c(=O)n(CCCCC(C)=O)c(=O)n2C` : reported Potency = inactive

Record summary for `COC(=O)C1=C(C)NC(C)=C(C(=O)OC)C1c1ccccc1[N+](=O)[O-]` : reported Potency = 12.6 µM (active)
